assaySystem: D-glucagon (all D-amino acids), biotinylated (Homo sapiens)
experimentalDetails: pulldown
conditions: D-DNA; 37 C, 1 mM Mg, 1 mM Ca, pH 7.4; direct pull-down
pKd: −log10 of the molar value.
endpoint: pKd

{"constructSequence": "CGACTCGAGAGGAAAGGTTGGTAAAGGTTCGGTTGGATTCACTCGAGTCG [259-H6-001 (aptamer)]", "assaySystem": "D-glucagon (all D-amino acids), biotinylated (Homo sapiens)", "endpoint": "pKd", "valueObserved": 7.48}
{"constructSequence": "GCAGTGGGGAAATGGGAGGGCTAGGTGGAAGGAATCTGAGCTACTGC [257-E1-001 (aptamer)]", "assaySystem": "D-glucagon (all D-amino acids), biotinylated (Homo sapiens)", "endpoint": "pKd", "valueObserved": 6.86}
